system: 743489-274-T-PDC complex spheroid growth; experiment: Anticancer human tumor 743489-274-T-PDC patient-derived renal cell carcinoma cell line growth inhibition [AhR]; settings: second compound 1 µM; first compound 0.001 µM; stronger effect = lower value
property-name: viability, T/C

• CC[C@@]1(O)C(=O)OCc2c1cc1n(c2=O)Cc2cc3c(CN(C)C)c(O)ccc3nc2-1 + CC(CO)NC(=O)c1cc(-c2ccc(Cl)cc2)nn(-c2cnn(C)c2)c1=O = 98.9%
• CC[C@@]1(O)C(=O)OCc2c1cc1n(c2=O)Cc2cc3c(CN(C)C)c(O)ccc3nc2-1 + Cc1ccccc1N=Nc1ccc(NC(=O)c2ccnn2C)c(C)c1 = 94%
• Cn1ncnc1C1c2n[nH]c(=O)c3cc(F)cc(c23)NC1c1ccc(F)cc1 (stereo unspecified) + CC(CO)NC(=O)c1cc(-c2ccc(Cl)cc2)nn(-c2cnn(C)c2)c1=O = 97.6%
• CC[C@@]1(O)C(=O)OCc2c1cc1n(c2=O)Cc2cc3c(CN(C)C)c(O)ccc3nc2-1 + Cc1cncc(-c2nc(NCCc3c[nH]c4ccccc34)c3ncn(C(C)C)c3n2)c1 = 105%

Entry Cn1ncnc1C1c2n[nH]c(=O)c3cc(F)cc(c23)NC1c1ccc(F)cc1 (stereo unspecified) + Cc1cncc(-c2nc(NCCc3c[nH]c4ccccc34)c3ncn(C(C)C)c3n2)c1 — recorded viability, T/C = 96%

Measured viability, T/C of Cn1ncnc1C1c2n[nH]c(=O)c3cc(F)cc(c23)NC1c1ccc(F)cc1 (stereo unspecified) + Cc1ccccc1N=Nc1ccc(NC(=O)c2ccnn2C)c(C)c1 : 92.1%

###

tested on: 743489-274-T-PDC complex spheroid growth; experiment: Anticancer human tumor 743489-274-T-PDC cell line growth inhibition [AhR]; conditions: curve of first compound; second compound 10 µM;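 further: spheroids exposed to agents for 7 days before readout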
property-name: IC50

* CC1COCCN1c1cc(-c2ccnn2C)c2ccnc(-c3ccn[nH]3)c2n1 (configuration not stated) + Cc1cncc(-c2nc(NCCc3c[nH]c4ccccc34)c3ncn(C(C)C)c3n2)c1 | > 1 µM
* Nc1ccn(C2OC(CO)C(O)C2(F)F)c(=O)n1 (configuration not stated) + Cc1ccccc1N=Nc1ccc(NC(=O)c2ccnn2C)c(C)c1 | > 10 µM
* CC[C@@]1(O)C(=O)OCc2c1cc1n(c2=O)Cc2cc3c(CN(C)C)c(O)ccc3nc2-1 + Cc1cncc(-c2nc(NCCc3c[nH]c4ccccc34)c3ncn(C(C)C)c3n2)c1 | > 0.1 µM
* COc1ccc([C@@H](O)c2cc(-c3ncnc4cc(N5CCOCC5)ccc34)c(F)cc2Cl)nn1 + Cc1ccccc1N=Nc1ccc(NC(=O)c2ccnn2C)c(C)c1 | 1.72 µM
* COc1cccc2c1C(=O)c1c(O)c3c(c(O)c1C2=O)CC(O)(C(=O)CO)CC3OC1CC(N)C(O)C(C)O1 (configuration not stated) + CC(CO)NC(=O)c1cc(-c2ccc(Cl)cc2)nn(-c2cnn(C)c2)c1=O | 3.24 µM
* CC(C)c1c(-c2ccccc2)nc2c(C#N)c[nH]n2c1=O + CC(CO)NC(=O)c1cc(-c2ccc(Cl)cc2)nn(-c2cnn(C)c2)c1=O | > 10 µM
* Nc1ncn(C2CC(O)C(CO)S2)c(=O)n1 (configuration not stated) + CC(CO)NC(=O)c1cc(-c2ccc(Cl)cc2)nn(-c2cnn(C)c2)c1=O | > 0.3 µM
* CC1COCCN1c1cc(-c2ccnn2C)c2ccnc(-c3ccn[nH]3)c2n1 (configuration not stated) + CC(CO)NC(=O)c1cc(-c2ccc(Cl)cc2)nn(-c2cnn(C)c2)c1=O | > 1 µM
* Nc1ccccc1NC(=O)c1ccc(CNC(=O)OCc2cccnc2)cc1 + Cc1cncc(-c2nc(NCCc3c[nH]c4ccccc34)c3ncn(C(C)C)c3n2)c1 | 9.62 µM
* COc1cc(C2c3cc4c(cc3C(OC3OC5COC(C)OC5C(O)C3O)C3COC(=O)C23)OCO4)cc(OC)c1O (configuration not stated) + Cc1cncc(-c2nc(NCCc3c[nH]c4ccccc34)c3ncn(C(C)C)c3n2)c1 | > 10 µM

Note to self: IC50 recorded for NS(=O)(=O)OCC1CC(n2ccc3c(NC4CCc5ccccc54)ncnc32)CC1O (configuration not stated) + Cc1ccccc1N=Nc1ccc(NC(=O)c2ccnn2C)c(C)c1 was > 10 µM

In plain terms, Cn1ncnc1C1c2n[nH]c(=O)c3cc(F)cc(c23)NC1c1ccc(F)cc1 (configuration not stated) + Cc1ccccc1N=Nc1ccc(NC(=O)c2ccnn2C)c(C)c1 has a documented IC50 of > 0.1 µM
